System: P. falciparum stage V gametocytes
Experiment: Gametocytocidal ATP bioluminescence assay (single point 5 μM and 1 μM, dose-response)
Assay type: cell-based, Plasmodium falciparum
Conditions: Plasmodium falciparum; P. falciparum gametocytes; average; read-out: IC50 Pf Gametocytes average, IC50 (µM) average
IC50 listing for selected molecules.
Record the value in µM, omitting the unit from your answer.

Some molecules with known IC50 results, for comparison:
1) N=C(N)Nc1nc(-c2ccc(NC(=O)Nc3cccc(-c4csc(NC(=N)N)n4)c3)cc2)cs1 [TCMDC-139559] | 1.43
2) NC1CCN(Cc2ccc(-c3ccc(-c4nc5cc(F)ccc5[nH]4)cc3)cc2)C1 (centres unmarked) [TCMDC-133872] | 0.83
3) Cc1cccc2nc(-c3cccc(-c4cccc(CNCCN5CCNCC5)c4)c3)[nH]c12 [TCMDC-132873] | 0.5
4) FC(F)(F)c1ccc2[nH]c(-c3ccc(-c4cccc(CNCCN5CCNCC5)c4)cc3)nc2c1 [TCMDC-132864] | 1.08
5) COc1cccc(C(=O)NC(C=Cc2ccccc2)c2cc(Cl)c3cccnc3c2O)c1 (centres unmarked) [TCMDC-125550] | 0.59

-- ask Report IC50 for CC(C)CNCc1cccc(-c2cccc(CN(CCN(C)C)C(=O)Nc3ccccc3)c2)c1 [TCMDC-140592] tested on P. falciparum stage V gametocytes.
-- reply 0.66

-- ask Notebook entry, P. falciparum stage V gametocytes assay: IC50 of COc1cccc(NC(=O)[C@H](C(C)C)n2c(=O)[nH]c3ccccc3c2=O)c1 [TCMDC-125133] = ?
-- reply 0.54

-- ask API: value(readout= IC50, system= P. falciparum stage V gametocytes, query= COc1cc(NCC(C)CNCc2cn(Cc3ccccc3)c3ccccc23)nc2ccccc12 (centres unmarked) [TCMDC-140496] )
-- reply 1.71

----------
# Lookup of reported pIC50 keyed by entry
System: HepG2 cells
Test: Cytotoxicity in HepG2 cells (intracellular ATP, ATPlite, 48 h)
Format: cell-based, human
Conditions: HepG2 cells; IC50 per ratio column head; unit inferred
Scale for pIC50: -log10 of concentration given in mol/L; no unit attached.

Answered cases to consult:
1) NCCCOc1cnc(-c2ccccc2)c2nc(-c3nonc3N)n(CCc3ccccc3)c12 | 5.25
2) Fc1ccc(N(c2nc(-c3cc(F)cc(C(F)(F)F)c3)cs2)C2CCNCC2)cc1 | 5.18
3) O=C(Nc1ccc(N2CCNCC2)cc1)c1ccn2ncc(-c3cccc(Cl)c3)c2n1 | 4.65

Now for another entry.
-- ask Please report the recorded pIC50 for CC(C)CNCc1cccc(-c2ccccc2CN(C(=O)NCCc2ccccc2)C2CCN(Cc3ccccc3)CC2)c1 .
-- reply 5.18

----------
Experiment: Cytotoxicity in HepG2 cells (intracellular ATP, ATPlite, 48 h)
Format: cell-based, human
Conditions: human, HepG2 cells; IC50 per ratio column head; unit inferred; read-out: Cytotoxicity in HepG2
Measured Parameter: IC50 at 48 h (µM)
Write down the numeric answer in µM and omit the unit.

1. CC1CCCCN1CCCNc1nc(NCc2ccccc2)c2ccccc2n1 (stereo not shown) | 20.1
2. NCc1ccc(CNCc2cccc(-c3ccc(-c4nc5ccccc5[nH]4)cc3)c2)cc1 | 21.8

-- ask Data request, read-out IC50 at 48 h, for CC(C)c1ccc(CN2CCC(CNC(=O)c3cc(-c4cccc(F)c4)cs3)C2)cc1 (stereo not shown)
-- reply 5.3

-- ask Give the measured IC50 at 48 h of CC[C@H]1CN2CCc3cc(OC)c(OC)cc3[C@@H]2C[C@@H]1C[C@H]1NCCc2cc(OC)c(OC)cc21 .
-- reply 21

-- ask What value of IC50 at 48 h has been reported for the following molecule? CCC1CN2CCc3cc(OC)c(OC)cc3C2CC1CC1NCCc2cc(OC)c(OC)cc21 (stereo not shown)
-- reply 17.7

-- ask Any idea what IC50 at 48 h was measured for Oc1ccc(CCNCCCCCCNCCc2ccc(Cl)c3ccccc23)cc1O ?
-- reply 13.5

-- ask Name the recorded IC50 at 48 h for CN1CCN(CCCNCc2cccc(-c3ccc(CNCCc4ccccc4)cc3)c2)CC1 .
-- reply 18.2

----------
System: luciferase reaction (BacTiter-Glo)
Test: Interference assay (inhibition of the BacTiter-Glo luciferase reaction)
Assay type: biochemical
Parameters: concentration or dose not given beside the values
Conditions: ATP interference assay
Reported % Control luminiscence values are given for each entry in this list.
Form entry: value (%) — number only.

Check out these entries, answers already filled in.
1. CC(C)CNCc1ccc(-c2cccc(CN(CCN(C)C)C(=O)CCC3CCCC3)c2)cc1 [TCMDC-140553] | 100
2. Cc1cccc2nc(-c3ccc(-c4cccc(CN5CCC(CCN6CCCCC6)CC5)c4)s3)[nH]c12.O=C(O)C(F)(F)F [TCMDC-133923] | 100
3. CCc1nn2c(Nc3ccncc3)cc(C)nc2c1-c1ccccc1 [TCMDC-124917] | 93

Then this molecule:
-- ask Which value of % Control luminiscence has been reported for c1ccc2c(NCCCCCCNc3ccnc4ccccc34)ccnc2c1 [TCMDC-137913] in the records?
-- reply 100

----------
Test system: P. falciparum stage V gametocytes
Experiment: Gametocytocidal ATP bioluminescence assay (single point 5 μM and 1 μM, dose-response)
Format: cell-based, Plasmodium falciparum
Conditions: P. falciparum gametocytes, 5 μM single concentration, 48 h, decrease of ATP level (S1 Table)
Measured Parameter: % Inhibition (%)
Write the answer as a number in %, unit excluded.

1) O=C(/C=C/c1ccc(Cl)c(Cl)c1)N1CCC(CCN2CCC(c3c[nH]c4ccncc34)CC2)CC1 | 91

-- ask Form field: reported % Inhibition of OC(CN1CCN(c2cccc(Cl)c2)CC1)C(c1ccccc1)c1ccccc1 (stereo not shown)
-- reply 0.238

-- ask I would be grateful if you could share the reported % Inhibition for CC(C)NC(C)(C)CN(Cc1ccc(-c2ccc(C(F)(F)F)cc2)cc1)C(=O)Cn1c(CCc2cccc(F)c2F)nc(=O)c2ccccc21 .
-- reply 72

-- ask If you can, please state the reported % Inhibition value of COc1cc2nc(C)nc(Nc3ccc(Cc4ccccc4)cc3)c2cc1OC .
-- reply 1.46

----------
System: luciferase reaction (BacTiter-Glo)
Assay: Interference assay (inhibition of the BacTiter-Glo luciferase reaction)
Assay type: biochemical
Parameters: concentration or dose not given beside the values
Conditions: ATP interference assay
Measured Parameter: % Control luminiscence (%)
Please respond with the number in % and leave the unit unwritten.

1) COc1ccc(CNC2Cc3ccccc3C2)cc1-c1ccc(OC)c(S(=O)(=O)NCCN2CCCC2)c1 [TCMDC-132251] | 100
2) c1cc(Nc2nc(-c3ccc(-c4csc(Nc5ccncc5)n4)cc3)cs2)ccn1 [TCMDC-139725] | 93
3) CCCCCCCN1CC[C@@H](CCCc2ccnc3ccc(OCCN4CCNCC4)cc23)[C@@H](CC)C1 [TCMDC-139817] | 94

# evaluate next
-- ask Please give the measured % Control luminiscence for this compound: Cc1ccc(C)c(CC(=O)N2CCC(n3c(C)nc4ccc(F)cc43)CC2)c1 [TCMDC-124790]
-- reply 100

----------
Test system: HepG2 cells
Assay: Cytotoxicity in HepG2 cells (intracellular ATP, ATPlite, 48 h)
Format: cell-based, human
Details: HepG2 cells; IC50 per ratio column head; unit inferred
Entries and their IC50 values follow.
Quick note: give the figure in µM, leave out the unit.

These recorded examples may help you get a feel for the data.
1) CC(C)COc1ccc2ccccc2c1CNCCCCCCNCc1c(OCC(C)C)ccc2ccccc12 | 1.88
2) COc1c(C2CCN(CCN3CCC(CNC(=O)c4ccc(-c5ccc(C#N)cc5)cc4)CC3)CC2)ccc2c1CCCC2 | 3.3

-- ask I have this compound here, CCCOc1ccc2ccccc2c1CNCCCCCCNCc1c(OCCC)ccc2ccccc12 , and I need its recorded IC50.
-- reply 3.1

-- ask Reported IC50, compound N=c1n(Cc2ccc(Cl)cc2)c2ccccc2n1CC(O)c1ccc(Cl)c(Cl)c1 (stereo not drawn) : ____
-- reply 6.5

-- ask # input compound: NC(N)=NN=Cc1c2ccccc2c(Cl)c2cc(Cl)ccc12 ; wanted: its IC50
-- reply 7.5

-- ask // query IC50 value for entry CCCCC(NCC)c1ccc(OCCOc2ccc(C(CCCC)NCC)cc2)cc1 (stereo not drawn)
-- reply 6.1

----------
Assay: Cytotoxicity in HepG2 cells (intracellular ATP, ATPlite, 48 h)
Format: cell-based, human
Conditions: human, HepG2 cells; IC50 per ratio column head; unit inferred; read-out: Cytotoxicity in HepG2
Measured Parameter: IC50 at 48 h (µM)
Form entry: value (µM) — number only.

Solved cases below.
1. COCCCNC(=S)NN=C(C)c1ccccn1 | 17
2. COc1cc2nc(N3CCC(CNC(=O)c4ccc(-c5ccc(-c6noc(C)n6)cc5)cc4)CC3)nc(N)c2cc1OC | 4.33

Now examine the next entry.
-- ask Query: IC50 at 48 h; subject: O=c1c(Br)ccccc1Br
-- reply 12.6
